- ASSAY_EXPLANATION: In vitro solubility in aqueous buffered solutions and biorelevant media
- Format: physicochemical
- CONDITION_CONTEXT: biorelevant medium FeSSIF v1, 37 °C, pH 5, fessif, thermodynamic from solid
READOUT_TYPE: solubility at 24 h

Name the recorded solubility at 24 h of the item CN(C)C(=O)c1cc2cnc(Nc3ccc(N4CCNCC4)cn3)nc2n1C1CCCC1 in your answer.
> 2200 µg/mL

###

- ASSAY_EXPLANATION: Food effect study A2103, single-dose PK in healthy volunteers
- Assay type: in vivo, human
- CONDITION_CONTEXT: both, human, plasma, oral, 600 mg, T1/2, Geo-mean (CV% Geo-mean), fed state (high-fat, high-calorie meal), single 600 mg dose
READOUT_TYPE: half-life (min)
Write the value in min as a bare number.

Name the recorded half-life of the compound listed here: CN(C)C(=O)c1cc2cnc(Nc3ccc(N4CCNCC4)cn3)nc2n1C1CCCC1 [Ribociclib]
2020

###

- ASSAY_EXPLANATION: In vitro solubility in aqueous buffered solutions and biorelevant media
- Type: physicochemical
- CONDITION_CONTEXT: aqueous buffered solution, 37 °C, pH 2, aqueous buffer, thermodynamic from solid
READOUT_TYPE: solubility at 24 h

Please report the measured solubility at 24 h for CN(C)C(=O)c1cc2cnc(Nc3ccc(N4CCNCC4)cn3)nc2n1C1CCCC1
> 2.4 mg/mL

###

- ASSAY_EXPLANATION: In vitro solubility in aqueous buffered solutions and biorelevant media
- Type: physicochemical
- CONDITION_CONTEXT: acidic media
READOUT_TYPE: solubility

Give me measured solubility, please, for this compound: CN(C)C(=O)c1cc2cnc(Nc3ccc(N4CCNCC4)cn3)nc2n1C1CCCC1 [Ribociclib]
≤ 200 mg/mL
